system: NHDF; experiment: Antiproliferative activity against NHDF at 30 uM after 72 hrs by MTT assay relative to control; format: cell-based; details: human
Entries whose Activity is below 70% take Satisfied; entries at or above 70% take Not satisfied.

> print(dat)
                                   compound  qualitative.label
1           O=C1NC(=S)NC(=O)C1=CNc1ccccc1Cl          Satisfied
2  Cn1c([O-])c(C(C#N)c2ccc(Br)cc2)c(=O)n(C)c1=O.[Na+] (configuration not stated)      Not satisfied
3   CC(NNc1ccccc1)=C1C(=O)N(C)C(=O)N(C)C1=O          Satisfied
4               NC(=O)NC=C1C(=O)NC(=S)NC1=O      Not satisfied
5  NC(=S)NC=C1C(=O)N(c2ccccc2)C(=S)N(c2ccccc2)C1=O      Not satisfied

---

Reported pIC50 values follow for various molecules
system: NHDF; experiment: Antiproliferative activity against NHDF after 72 hrs by MTT assay; format: cell-based; conditions: Homo sapiens
pIC50: −log10 of the molar value.
measured_quantity: pIC50

> print(dat)
                              input.smiles   tgt  measurement
1  CC(NNc1ccccc1)=C1C(=O)N(C)C(=O)N(C)C1=O  NHDF         4.09
2                  O=c1[nH]cc(F)c(=O)[nH]1  NHDF         5.13

---

assay: Antioxidant activity assessed as DPPH radical scavenging activity at 30 uM after 20 mins by spectrophotometric method relative to control; format: functional
measured_quantity: Activity (%)

> print(dat)
                                    compound  measured.quantity  unit.descriptor  measurement
 1                 CC(NN)=C1C(=O)NC(=O)NC1=O           Activity                %         11.6
 2               NC(=O)NC=C1C(=O)NC(=O)NC1=O           Activity                %        -5.19
 3            CC(=O)C1C(=O)N(C)C(=O)N(C)C1=O           Activity                %        -9.14
 4          COc1ccc(C=C2C(=O)NC(=O)NC2=O)cc1           Activity                %        -0.97
 5  Cn1c([O-])c(C(C#N)c2ccc(Br)cc2)c(=O)n(C)c1=O.[Na+] (configuration not stated)           Activity                %         0.45
 6         CC(NNc1ccccc1)=C1C(=O)NC(=O)NC1=O           Activity                %         77.1
 7  O=C1NC(=S)NC(=O)C1=Cc1ccccc1[N+](=O)[O-]           Activity                %         -2.2
 8       O=C1NC(=S)NC(=O)C1=CNc1ccccc1C(=O)O           Activity                %        -0.56
 9  CN1C(=O)C(=Cc2ccccc2[N+](=O)[O-])C(=O)N(C)C1=O           Activity                %         -0.8
10         CN1C(=O)C(=CNC(N)=S)C(=O)N(C)C1=O           Activity                %         20.3
11  O=C(O)c1ccccc1NC=C1C(=O)N(c2ccccc2)C(=S)N(c2ccccc2)C1=O           Activity                %        -2.45
12  O=C1NC(=S)NC(=O)C1=CNc1ccc([N+](=O)[O-])cc1Cl           Activity                %         0.91
13  O=C1C(=Cc2ccccc2[N+](=O)[O-])C(=O)N(c2ccccc2)C(=S)N1c1ccccc1           Activity                %            9
14           O=C1NC(=S)NC(=O)C1=CNc1ccccc1Cl           Activity                %         1.12
15  CC(NN)=C1C(=O)N(c2ccccc2)C(=S)N(c2ccccc2)C1=O           Activity                %         31.3
16            Nc1ccccc1NC=C1C(=O)NC(=S)NC1=O           Activity                %          6.1
17  CC(NNc1ccc([N+](=O)[O-])cc1[N+](=O)[O-])=C1C(=O)N(C)C(=O)N(C)C1=O           Activity                %           28

---

test system: NHDF; test: Antiproliferative activity against NHDF at 30 uM after 72 hrs by MTT assay relative to control; type: cell-based; details: human
measured_quantity: Activity

> print(dat)
                               input.smiles   tgt  measurement
1  CN1C(=O)C(=Cc2ccccc2[N+](=O)[O-])C(=O)N(C)C1=O  NHDF       79.11%
2               NC(S)=NC=C1C(=O)NC(=O)NC1=O  NHDF       78.05%
3  CC(NNc1ccc([N+](=O)[O-])cc1)=C1C(=O)N(C)C(=O)N(C)C1=O  NHDF       77.63%
